tested on: P. falciparum 3D7 parasites; assay: P. falciparum growth inhibition assay, 1-cycle (72 h treatment), SYBR DNA staining (library screen at 2 μg/mL and dose-response); format: cell-based, Plasmodium falciparum; conditions: Plasmodium falciparum, 3D7; library screen at 2 μg/mL, 72 h, % growth, replicate 2; read-out: Pf_72h_%Growth_Rep2
Structures can show the parent of a compound that is named as a salt.
Rule: t for activity at 2 µg/mL not less than 70%, f for anything less.

Before answering, review these 5 worked examples.
CC[C@]1(C)C[C@@H](OC(=O)CSc2nnc(N)[nH]2)[C@]2(C)[C@H](C)CC[C@]3(CCC(=O)[C@H]32)[C@@H](C)[C@@H]1O ... f
Cc1c2c(c(O)c3c(O)cccc13)C(=O)[C@]1(O)C(=O)C(C(N)=O)=C(O)[C@@H](N(C)C)[C@@H]1C2 [Anhydrotetracycline hydrochloride] ... t
COC(=O)c1cc(O)cc(OC)c1Oc1cc(C)cc(O)c1C(=O)O ... t
COc1cc(C)c(C(=O)Oc2cc(C)c(C(=O)O)c(O)c2C)c(OC)c1C ... t
CC1(C)CC[C@]2(C(=O)O)CC[C@]3(C)C(=CC[C@@H]4[C@@]5(C)C[C@@H](O)[C@H](O)[C@@](C)(CO)[C@@H]5CC[C@]43C)[C@@H]2C1 ... t

[ask] Answer whether activity at 2 µg/mL of C=C1CCO[C@]2([C@@H](O)[C@@](C)(O)CO)NC(=O)[C@@]1(O)NC2=O is greater than or equal to 70%.
[reply] t

---

tested on: T. gondii RH strain (RH-Tub-eYFP) tachyzoites; assay: microbe, parasite or virus in culture; assay type: cell-based, Toxoplasma gondii; conditions: Toxoplasma gondii, 72 h, T. gondii, 72 h, screen at 2 μg/mL, replicate 1; read-out: Tg_72h_%Growth_Rep1
Classify by measured percent parasite growth at 2 µg/mL: 1.0 if it is equal to or exceeds 90%, 0.0 if it is smaller.

These recorded examples may help you get a feel for the data.
C=C1[C@@H](C)[C@H]2[C@H](Cc3ccccc3)NC(=O)[C@]23[C@H](OC(C)=O)/C=C/[C@@](C)(O)C(=O)[C@@H](C)C/C=C/[C@H]3[C@@H]1O [Cytochalasin D] ... 0.0
CC1CCCCCC(=O)c2c(O)cc(O)cc2CC(=O)O1 (stereo not shown) [Curvularin] ... 1.0
O=C1N[C@@H](Cc2c[nH]c3ccccc23)C(=O)N2CCC[C@@H]12 [Brevianamide F] ... 0.0
CC[C@H]1OC(=O)C[C@@H](O)[C@H](C)[C@@H](O[C@@H]2O[C@H](C)[C@@H](O)[C@H](N(C)C)[C@H]2O)[C@@H](CCN2C[C@H](C)C[C@H](C)C2)C[C@@H](C)C(=O)/C=C/C(C)=C/[C@@H]1CO[C@@H]1O[C@H](C)[C@@H](O)[C@@H](OC)[C@H]1OC [Tilmicosin, reference compound] ... 0.0
COC(=O)C1=C2Nc3ccccc3[C@@]23CCN2C[C@]4(C[C@@H]5C[C@]67CCC[C@H]6CCN6CC[C@@]8(c9cccc(OC)c9N(C4)[C@@]58O)[C@@H]67)[C@@H]4OCC[C@]4(C1)[C@H]23 [Vobtusine] ... 0.0

[ask] Threshold query (percent parasite growth at 2 µg/mL >= 90%) on C/C=C/C/C=C/CCC(=O)[C@H]1O[C@H]1C(N)=O [Cerulenin]
[reply] 0.0

[ask] Kindly determine if percent parasite growth at 2 µg/mL recorded for COc1cc2c(oc(=O)c3cc(C)cc(OC)c32)c2c([C@@H]3O[C@H](C)[C@H](O)[C@@](C)(O)[C@H]3O)ccc(O)c12 [Chrysomycin B] is above or exactly 90%.
[reply] 0.0

[ask] Can O=C(O)/C=C/c1ccc(O)c(O)c1 [Caffeic acid] be said to have percent parasite growth at 2 µg/mL at or above 90%?
[reply] 1.0

[ask] Is percent parasite growth at 2 µg/mL for COC(=O)[C@]1(Cc2ccc(O)c(CC=C(C)C)c2)OC(=O)C(O)=C1c1ccc(O)cc1 [Butyrolactone I] at or above 90%?
[reply] 0.0

[ask] # bool: percent parasite growth at 2 µg/mL of COc1c(OC/C=C(\C)CCC=C(C)C)ccc2ccc(=O)oc12 [Collinin] >= 90%
[reply] 0.0

[ask] Dear colleague, could you confirm whether N#Cc1cn([C@@H]2O[C@H](CO)[C@@H](O)[C@H]2O)c2ncnc(N)c12 [Toyocamycin] has percent parasite growth at 2 µg/mL at or above 90%?
[reply] 0.0

---

system: T. gondii RH strain (RH-Tub-eYFP) tachyzoites; assay: microbe, parasite or virus in culture; format: cell-based, Toxoplasma gondii; conditions: library screen at 2 μg/mL, 72 h, % growth, replicate 2
Where a SMILES comes first, the peptide text is derived from it. Bridges are numbered along the chain shown (N, C = ends). [ ]: non-standard residue; d: D form. The star is where a group is joined. Octatrienoyl(2E,4E,6E) = C/C=C/C=C/C=C/C(=O)*; NMeA = CN[C@@H](C)C(=O)O
Each entry gets class 0 if its Tg_72h_%Growth_Rep2 stays under 90%, and class 1 if its Tg_72h_%Growth_Rep2 is 90% or above.

The examples below pair each entry with its known result.
C=C(NC(=O)C(=C)NC(=O)c1ccc2c(n1)-c1coc(n1)C(=C)NC(=O)C(=C)NC(=O)c1nc(oc1C)C(=C)NC(=O)[C@H](C(C)(C)O)NC(=O)C(=C)NC(=O)c1nc(oc1C)/C(=C/C)NC(=O)[C@H]([C@@H](C)O)NC(=O)c1csc-2n1)C(N)=O [Berninamycin A] ... class 1
CC[C@H]1OC(=O)[C@H](C)[C@@H](O[C@H]2C[C@@](C)(OC)[C@@H](O)[C@H](C)O2)[C@H](C)[C@@H](O[C@@H]2O[C@H](C)C[C@H]([N+](C)(C)[O-])[C@H]2O)[C@](C)(O)C[C@@H](C)C(=O)[C@H](C)[C@@H](O)[C@]1(C)O [Erythromycin A N-oxide] ... class 1
CO[C@@H]1[C@@H](OC(N)=O)[C@@H](O)[C@H](Oc2ccc3c(O)c(NC(=O)c4ccc(O)c(CCC(C)C)c4)c(=O)oc3c2C)OC1(C)C [Dihydronovobiocin] ... class 1

[ask] Is Tg_72h_%Growth_Rep2 for COc1ccc2c(c1)C(=O)NC(Cc1ccccc1)C(=O)NCCC(=O)N1CCCC1C(=O)N2 (stereo not shown) [Aspercolorin] at or above 90%?
[reply] class 1

[ask] Does the molecule CCCCCCC(C)C/C(C)=C\C(/C=C(C)/C=C/C(O)C(C)(C)c1cc(O)c([C@@H]2O[C@H](CO)C[C@H](O)[C@H]2O)c(=O)o1)CO (stereo partly shown) [Fusapyrone] have recorded Tg_72h_%Growth_Rep2 that is 90% or more?
[reply] class 1

[ask] Confirm if Tg_72h_%Growth_Rep2 reported for the molecule CS(=O)(=O)c1ccc([C@@H](O)[C@H](N)CF)cc1 [Florfenicol amine] is 90% or above.
[reply] class 1

[ask] Exam item: decide whether the reported Tg_72h_%Growth_Rep2 for CC1(C)CCC[C@]2(C)[C@@H](CO)C(CO)=CC[C@@H]12 [Drimendiol] is at least 90%.
[reply] class 1

[ask] Does Tg_72h_%Growth_Rep2 meet or surpass 90% for C/C=C/C=C/C=C/C(=O)N[C@@H](Cc1ccccc1)C(=O)N[C@H]1COC(=O)[C@@H]2CCCN2C(=O)[C@H](C)NC(=O)[C@H](C)N(C)C(=O)[C@@H]2CCCN2C1=O [A 54556B] ({Octatrienoyl(2E,4E,6E)}-FSP[NMeA]AP; ester 2-C) ?
[reply] class 0

[ask] Is it the case that COc1ccc2cc1Oc1cc(ccc1O)[C@H](O)[C@]13SS[C@@]4(C(=O)N1C)[C@H](O)C1=COC=C[C@H](OC2=O)[C@H]1N4C3=O [Emestrin] has Tg_72h_%Growth_Rep2 reaching or exceeding 90%?
[reply] class 0

---

tested on: P. falciparum 3D7 parasites; assay: P. falciparum growth inhibition assay, 2-cycle (120 h treatment), delayed-death screen and dose-response; type: cell-based, Plasmodium falciparum; conditions: Plasmodium falciparum, 3D7; P. falciparum, 120 h, screen at 2 μg/mL, replicate 2; read-out: Pf_120h_%Growth_Rep2
reported-endpoint: activity at 2 µg/mL (%)
Give a bare numeral; the unit % is implied.

Cc1nnc2n1-c1sc(CCC(=O)N3CCOCC3)cc1C(c1ccccc1Cl)=NC2 ... 84.4
C=CC(C)(C)[C@@]12C[C@H]3C(=O)N[C@H](CC(C)C)C(=O)N3[C@H]1N(C(C)=O)c1ccccc12 ... 81.9
CC[C@H](C)[C@@H](OC(C)=O)[C@@H](C)C1=CC(=O)C2=C(O[C@]3(C)CC[C@H]4O[C@@H](C(C)(C)O)CC[C@]4(C)[C@H]3[C@@H]2O)C1=O ... 74.1
COC(=O)/C(=C1/OC(=O)C(c2ccccc2)=C1O)c1ccccc1 ... 103

[ask] For the compound Nc1ncnc2c1ncn2[C@@H]1O[C@H](CO)C[C@H]1O [Cordycepin] , give its reported activity at 2 µg/mL.
[reply] 12.4

[ask] Provide activity at 2 µg/mL value for the following compound: O=c1c(-c2ccc(O)cc2)coc2cc(O)ccc12
[reply] 95.5

[ask] Indicate the recorded activity at 2 µg/mL value for this compound: CC[C@H](C)C(=O)[C@@H](C)C1=CC(=O)C2=C(O[C@]3(C)CC[C@H]4O[C@@H](C(C)(C)O)CC[C@]4(C)[C@H]3C2)C1=O
[reply] 44.2
